Molecular target: Proto-oncogene tyrosine-protein kinase Src (Homo sapiens)
Sequence (P12931 2-536 limits assumed): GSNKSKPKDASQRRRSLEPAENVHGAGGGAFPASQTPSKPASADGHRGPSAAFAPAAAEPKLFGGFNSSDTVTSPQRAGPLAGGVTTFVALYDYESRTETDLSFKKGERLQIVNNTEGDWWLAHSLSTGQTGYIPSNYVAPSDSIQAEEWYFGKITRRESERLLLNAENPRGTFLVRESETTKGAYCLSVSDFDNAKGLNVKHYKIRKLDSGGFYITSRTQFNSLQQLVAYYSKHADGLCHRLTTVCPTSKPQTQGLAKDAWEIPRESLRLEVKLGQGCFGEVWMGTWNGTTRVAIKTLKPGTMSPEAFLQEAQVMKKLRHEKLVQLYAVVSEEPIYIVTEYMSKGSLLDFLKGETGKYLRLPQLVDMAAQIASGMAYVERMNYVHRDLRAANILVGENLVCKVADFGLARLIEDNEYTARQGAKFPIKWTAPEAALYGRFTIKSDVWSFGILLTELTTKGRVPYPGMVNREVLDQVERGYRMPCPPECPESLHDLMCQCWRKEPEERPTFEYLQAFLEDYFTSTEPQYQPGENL
pIC50: −log10 of the molar value.
MEASUREMENT_TYPE: pIC50

smiles_repr=CCN(CC)CCCCNc1ncc2cc(-c3cc(OC)cc(OC)c3)c(NC(=O)NC(C)(C)C)nc2n1 measurement_type=pIC50 observed_value=4.70

----------
Target: UniProt P16092
Sequence (P16092 whole entry): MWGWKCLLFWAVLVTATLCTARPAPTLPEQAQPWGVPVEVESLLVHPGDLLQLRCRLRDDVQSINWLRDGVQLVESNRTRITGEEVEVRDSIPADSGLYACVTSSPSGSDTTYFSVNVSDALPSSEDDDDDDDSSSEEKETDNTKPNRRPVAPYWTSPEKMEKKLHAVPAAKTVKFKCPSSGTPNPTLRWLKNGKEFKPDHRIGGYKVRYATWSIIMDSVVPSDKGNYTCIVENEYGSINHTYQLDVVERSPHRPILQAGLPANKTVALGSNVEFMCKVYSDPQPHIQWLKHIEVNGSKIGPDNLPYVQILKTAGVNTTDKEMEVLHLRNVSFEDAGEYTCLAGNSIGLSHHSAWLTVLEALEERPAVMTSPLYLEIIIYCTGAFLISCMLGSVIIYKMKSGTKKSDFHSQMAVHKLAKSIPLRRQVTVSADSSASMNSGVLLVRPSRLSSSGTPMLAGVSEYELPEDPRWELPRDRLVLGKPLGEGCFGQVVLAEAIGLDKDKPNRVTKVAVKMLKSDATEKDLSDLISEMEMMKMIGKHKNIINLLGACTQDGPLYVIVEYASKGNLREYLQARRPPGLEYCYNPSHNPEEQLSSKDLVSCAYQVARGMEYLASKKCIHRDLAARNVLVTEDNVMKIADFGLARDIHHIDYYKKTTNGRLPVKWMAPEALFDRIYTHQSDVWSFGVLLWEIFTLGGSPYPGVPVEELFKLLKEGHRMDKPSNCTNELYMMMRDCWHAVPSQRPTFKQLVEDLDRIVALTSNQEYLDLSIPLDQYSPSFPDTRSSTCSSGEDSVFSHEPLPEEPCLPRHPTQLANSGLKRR
Assay: Inhibition of FGFR1 autophosphorylation in mouse NIH/3T3 cells assessed as reduction in aFGF and heparin-induced autophosphorylation incubated for 5 mins before stimulation for 5 mins with aFGF and heparin by SDS-PAGE and immunoblot method
pIC50: −log10 of the molar value.
MEASUREMENT_TYPE: pIC50

smiles_repr=CCN(CC)CCCCNc1ncc2cc(-c3cc(OC)cc(OC)c3)c(NC(=O)NC(C)(C)C)nc2n1 observed_value=9.00
